assay.system: Ribosomal protein S6 kinase alpha-5 (Homo sapiens) (UniProt O75582)
Sequence (O75582 whole entry, looked up): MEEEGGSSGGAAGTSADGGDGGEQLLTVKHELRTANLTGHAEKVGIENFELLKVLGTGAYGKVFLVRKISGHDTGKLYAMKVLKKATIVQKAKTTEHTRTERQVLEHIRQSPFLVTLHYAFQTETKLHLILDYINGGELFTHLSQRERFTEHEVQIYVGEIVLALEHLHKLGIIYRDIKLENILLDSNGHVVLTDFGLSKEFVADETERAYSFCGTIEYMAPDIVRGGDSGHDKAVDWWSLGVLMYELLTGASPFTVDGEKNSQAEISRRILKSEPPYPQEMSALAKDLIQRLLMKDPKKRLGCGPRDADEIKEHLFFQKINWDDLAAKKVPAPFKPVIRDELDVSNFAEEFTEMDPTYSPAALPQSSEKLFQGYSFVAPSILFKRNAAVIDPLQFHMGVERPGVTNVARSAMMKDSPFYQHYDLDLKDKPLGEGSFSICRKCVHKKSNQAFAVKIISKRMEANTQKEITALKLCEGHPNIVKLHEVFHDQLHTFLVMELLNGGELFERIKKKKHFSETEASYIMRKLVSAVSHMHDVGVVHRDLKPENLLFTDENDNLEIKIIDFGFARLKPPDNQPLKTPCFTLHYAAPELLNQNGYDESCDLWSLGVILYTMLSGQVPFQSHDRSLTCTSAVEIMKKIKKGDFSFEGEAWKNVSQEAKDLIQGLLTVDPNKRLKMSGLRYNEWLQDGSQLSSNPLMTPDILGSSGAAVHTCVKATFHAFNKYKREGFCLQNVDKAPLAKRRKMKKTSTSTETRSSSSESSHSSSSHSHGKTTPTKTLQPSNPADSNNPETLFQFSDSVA
protocol: Inhibition of MSK1 at 30 uM by microfluidic mobility shift assay
quantity.measured: inhibition (%)
Give a bare numeral; the unit % is implied.

INSERT INTO measurements (smiles_string, observed_measurement) VALUES
  ('COc1ccc(-c2c(C)[nH]c(=O)c3c(N)nn(C)c23)cc1', 13),
  ('Cc1cc2[nH]nc(N)c2c(N2CCOCC2)n1', 74),
  ('CN1CCN(c2ccc(-c3cc4c(c(N)nn4C)c(=O)[nH]3)cc2)CC1', 29),
  ('Cn1nc2c3c(nc(-c4ccccc4)cc31)NCC(=O)N2', 0);

Proceed to the following item.
Ask | Send back Ribosomal protein S6 kinase alpha-5 (Homo sapiens) (UniProt O75582) inhibition of Nc1n[nH]c2cc(-c3cccs3)[nH]c(=O)c12 only.
Reply | 63

* * *

# inhibition per record follows
assay.system: Proto-oncogene tyrosine-protein kinase Src (Homo sapiens)
Sequence (P12931 2-536 limits assumed): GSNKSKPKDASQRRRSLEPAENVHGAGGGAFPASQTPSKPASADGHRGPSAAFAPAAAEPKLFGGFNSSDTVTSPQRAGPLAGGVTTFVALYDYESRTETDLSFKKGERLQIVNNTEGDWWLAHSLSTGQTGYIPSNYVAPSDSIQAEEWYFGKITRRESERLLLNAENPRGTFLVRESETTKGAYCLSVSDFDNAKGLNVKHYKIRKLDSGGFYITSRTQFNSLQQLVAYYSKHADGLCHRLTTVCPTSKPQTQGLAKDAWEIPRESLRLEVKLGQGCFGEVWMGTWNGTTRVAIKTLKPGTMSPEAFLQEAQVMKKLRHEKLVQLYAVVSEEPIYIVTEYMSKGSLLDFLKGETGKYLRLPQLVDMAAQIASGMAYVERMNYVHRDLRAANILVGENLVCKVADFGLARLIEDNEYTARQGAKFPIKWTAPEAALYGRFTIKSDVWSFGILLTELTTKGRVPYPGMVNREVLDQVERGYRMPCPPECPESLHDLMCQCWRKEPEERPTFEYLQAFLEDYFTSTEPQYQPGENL
protocol: Inhibition of SRC at 30 uM by microfluidic mobility shift assay
Give a bare numeral; the unit % is implied.

Example cases with answers are listed next.
INSERT INTO measurements (smiles_string, unit_name, observed_measurement) VALUES
  ('COc1ccc(-c2cc3[nH]nc(N)c3c(=O)[nH]2)cc1', '%', 59),
  ('Cc1cc2nn(-c3ccccc3)c(N)c2c(N2CCCCC2)n1', '%', 7),
  ('COCCNc1nc(C)cc2nn(-c3ccccc3)c(N)c12', '%', 2),
  ('Cc1cc2[nH]nc(N)c2c(N2CCOCC2)n1', '%', 45),
  ('Nc1c2cnc(-c3ccccc3)cc2nn1-c1ccccc1', '%', 9);

Ask | For Cc1cc2[nH]nc(N)c2c(=O)[nH]1 , write its inhibition.
Reply | 14

Ask | For Cc1cc2c(c(NC(=O)Nc3ccccc3)nn2C)c(=O)[nH]1 , write its inhibition.
Reply | 17

Ask | For Cc1cc2c(c(N)nn2C)c(N2CC[C@H](O)C2)n1 , write its inhibition.
Reply | 3

Ask | For Nc1n[nH]c2cc(-c3ccc(N4CCOCC4)cc3)[nH]c(=O)c12 , write its inhibition.
Reply | 74

Ask | For Nc1c2c(=O)[nH]c(-c3ccccc3)cc2nn1-c1ccccc1 , write its inhibition.
Reply | 98

Ask | For Cc1cc2[nH]nc(N)c2cn1 , write its inhibition.
Reply | 6

Ask | For Cc1cc2[nH]ncc2c(=O)[nH]1 , write its inhibition.
Reply | 5

* * *

# inhibition per record follows
assay.system: RAC-alpha serine/threonine-protein kinase (Homo sapiens) (UniProt P31749)
Sequence (P31749 whole entry): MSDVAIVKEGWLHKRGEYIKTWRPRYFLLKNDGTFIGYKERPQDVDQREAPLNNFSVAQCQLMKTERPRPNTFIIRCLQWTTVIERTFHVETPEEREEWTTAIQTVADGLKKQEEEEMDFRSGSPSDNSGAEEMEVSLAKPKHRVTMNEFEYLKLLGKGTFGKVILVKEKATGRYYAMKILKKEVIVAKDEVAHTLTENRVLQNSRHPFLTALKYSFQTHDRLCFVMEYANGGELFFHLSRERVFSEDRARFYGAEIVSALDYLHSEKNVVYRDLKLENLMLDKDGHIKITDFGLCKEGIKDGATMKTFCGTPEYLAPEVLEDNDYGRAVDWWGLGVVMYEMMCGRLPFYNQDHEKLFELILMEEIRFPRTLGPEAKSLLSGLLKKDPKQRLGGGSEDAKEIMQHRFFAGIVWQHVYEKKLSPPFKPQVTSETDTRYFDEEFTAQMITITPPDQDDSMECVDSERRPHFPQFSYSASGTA
protocol: Inhibition of AKT1 at 30 uM by microfluidic mobility shift assay
Give a bare numeral; the unit % is implied.

INSERT INTO results (smiles_string, quantity_measured, observed_measurement) VALUES
  ('Nc1c2cnc(-c3ccccc3)cc2nn1-c1ccccc1', 'inhibition', -1),
  ('Nc1n[nH]c2c3c([nH]c(=O)c12)CCCC3', 'inhibition', -3),
  ('Nc1n[nH]c2cc(-c3cccnc3)[nH]c(=O)c12', 'inhibition', 7),
  ('COc1ccc(-c2c(C)[nH]c(=O)c3c(N)nn(C)c23)cc1', 'inhibition', 13),
  ('CC(=O)Nc1nn(C)c2cc(-c3ccc(N4CCN(C)CC4)cc3)[nH]c(=O)c12', 'inhibition', 4);

Ask | Send back RAC-alpha serine/threonine-protein kinase (Homo sapiens) (UniProt P31749) inhibition of Cc1cc2nc(N)nc(N)c2c(=O)[nH]1 only.
Reply | 5

* * *

assay.system: Tyrosine-protein kinase Lyn (Homo sapiens)
Sequence (P07948 2-512 limits assumed): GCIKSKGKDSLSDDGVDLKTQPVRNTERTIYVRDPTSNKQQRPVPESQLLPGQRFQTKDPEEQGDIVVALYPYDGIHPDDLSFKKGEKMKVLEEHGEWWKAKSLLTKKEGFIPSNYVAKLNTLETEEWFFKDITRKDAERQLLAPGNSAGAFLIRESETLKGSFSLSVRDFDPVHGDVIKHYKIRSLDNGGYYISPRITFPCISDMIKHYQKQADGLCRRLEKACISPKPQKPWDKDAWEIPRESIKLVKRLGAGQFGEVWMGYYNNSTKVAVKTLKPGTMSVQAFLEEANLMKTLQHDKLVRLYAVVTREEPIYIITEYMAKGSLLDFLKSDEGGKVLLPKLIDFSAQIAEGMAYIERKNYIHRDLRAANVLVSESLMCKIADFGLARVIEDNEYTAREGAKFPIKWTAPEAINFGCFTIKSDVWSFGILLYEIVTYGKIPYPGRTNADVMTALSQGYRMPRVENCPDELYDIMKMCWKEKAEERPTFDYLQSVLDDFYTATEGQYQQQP
protocol: Inhibition of LYN at 30 uM by microfluidic mobility shift assay
quantity.measured: inhibition (%)
Give a bare numeral; the unit % is implied.

Example cases with answers are listed next.
INSERT INTO results (smiles_string, observed_measurement) VALUES
  ('CC(=O)Nc1nn(C)c2cc(-c3ccc(N4CCN(C)CC4)cc3)[nH]c(=O)c12', 8),
  ('Cc1cc2[nH]nc(N)c2cn1', 8),
  ('Cc1cc2c(cn1)c(N)nn2C', 1),
  ('COc1ccc(S(=O)(=O)Nc2nn(C)c3cc(C)[nH]c(=O)c23)c(OC)c1', -1),
  ('CN1CCN(c2ccc(-c3cc4[nH]nc(N)c4c(=O)[nH]3)cc2)CC1', 76),
  ('Cc1cc2nn(-c3ccccc3)c(N)c2c(N2CCCCC2)n1', 8),
  ('Cn1nc2c3c(nc(-c4ccccc4)cc31)NCC(=O)N2', 6),
  ('Cc1[nH]c(=O)c2c(N)n(-c3ccccc3)nc2c1-c1ccccc1', 71);

Ask | For COc1ccccc1-c1cc2nn(-c3ccccc3)c(N)c2c(=O)[nH]1 , write its inhibition.
Reply | 86

Ask | For Cc1cc2nn(-c3ccccc3)c(N)c2c(=O)[nH]1 , write its inhibition.
Reply | 9

Ask | For COc1ccc(-c2cc3[nH]nc(N)c3c(=O)[nH]2)cc1 , write its inhibition.
Reply | 56

Ask | For COCCNc1nc(C)cc2c1c(N)nn2C , write its inhibition.
Reply | 6

* * *

protocol: Inhibition of PKA at 30 uM by microfluidic mobility shift assay
quantity.measured: inhibition (%)
Give a bare numeral; the unit % is implied.

Example cases with answers are listed next.
INSERT INTO assay_data (smiles_string, unit_name, observed_measurement) VALUES
  ('Cn1nc2c3c(nc(-c4ccccc4)cc31)NCC(=O)N2', '%', 0),
  ('Cn1nc(N)c2c(=O)[nH]c(-c3ccccc3)cc21', '%', 7),
  ('Nc1c2c(=O)[nH]c(-c3ccccc3)cc2nn1-c1ccccn1', '%', -3),
  ('Cn1nc(N)c2c(=O)[nH]c(-c3ccccn3)cc21', '%', 5),
  ('CC(C)(C)c1cc2nn(-c3ccccc3)c(N)c2c(=O)[nH]1', '%', 1),
  ('Cc1cc2c(cn1)c(N)nn2C', '%', 1),
  ('COc1ccccc1-c1cc2nn(-c3ccccc3)c(N)c2c(=O)[nH]1', '%', 6),
  ('CN1CCN(c2ccc(-c3cc4c(c(N)nn4C)c(=O)[nH]3)cc2)CC1', '%', 81);

Ask | For COCCNc1nc(C)cc2nn(-c3ccccc3)c(N)c12 , write its inhibition.
Reply | 1

Ask | For Nc1n[nH]c2cc(-c3ccncc3)[nH]c(=O)c12 , write its inhibition.
Reply | 55

* * *

assay.system: Mitogen-activated protein kinase 14 (Homo sapiens)
Sequence (Q16539 whole entry): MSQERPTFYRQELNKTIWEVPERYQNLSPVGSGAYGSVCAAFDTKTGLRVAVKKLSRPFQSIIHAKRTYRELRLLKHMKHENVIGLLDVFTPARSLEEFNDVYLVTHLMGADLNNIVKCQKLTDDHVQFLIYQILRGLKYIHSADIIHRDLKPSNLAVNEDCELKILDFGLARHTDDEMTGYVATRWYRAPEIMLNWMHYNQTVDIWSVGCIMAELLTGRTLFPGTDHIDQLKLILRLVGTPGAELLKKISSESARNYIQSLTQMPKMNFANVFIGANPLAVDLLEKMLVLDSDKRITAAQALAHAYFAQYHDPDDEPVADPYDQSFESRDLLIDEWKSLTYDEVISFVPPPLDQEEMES
protocol: Inhibition of p38alpha by microfluidic mobility shift assay
quantity.measured: IC50 (µM)
Give a bare numeral; the unit µM is implied.

Ask | For Nc1c2c(=O)[nH]c(-c3ccccc3)cc2nn1-c1ccccc1 , write its IC50.
Reply | 8.7

* * *

assay.system: RAC-beta serine/threonine-protein kinase (Homo sapiens) (UniProt P31751)
Sequence (P31751 whole entry): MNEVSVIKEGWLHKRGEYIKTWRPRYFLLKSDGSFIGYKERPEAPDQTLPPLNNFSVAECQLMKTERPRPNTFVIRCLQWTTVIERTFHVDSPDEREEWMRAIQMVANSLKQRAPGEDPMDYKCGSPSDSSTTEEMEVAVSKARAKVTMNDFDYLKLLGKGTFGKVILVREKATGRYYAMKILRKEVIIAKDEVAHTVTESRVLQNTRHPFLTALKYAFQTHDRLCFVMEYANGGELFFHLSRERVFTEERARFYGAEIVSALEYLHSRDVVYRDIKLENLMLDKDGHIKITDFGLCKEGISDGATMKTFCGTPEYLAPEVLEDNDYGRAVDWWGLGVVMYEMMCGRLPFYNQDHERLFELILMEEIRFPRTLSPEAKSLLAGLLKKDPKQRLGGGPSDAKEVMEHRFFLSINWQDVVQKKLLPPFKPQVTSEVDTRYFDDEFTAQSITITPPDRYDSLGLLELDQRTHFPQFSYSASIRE
protocol: Inhibition of AKT2 at 30 uM by microfluidic mobility shift assay
# inhibition per record follows
Give a bare numeral; the unit % is implied.

INSERT INTO assay_data (smiles_string, observed_measurement) VALUES
  ('Nc1n[nH]c2cc(-c3ccncc3)[nH]c(=O)c12', 4),
  ('Cc1cc2[nH]ncc2c(=O)[nH]1', 1);

Ask | For Nc1c2c(=O)[nH]c(-c3ccccc3)cc2nn1-c1ccccn1 , write its inhibition.
Reply | 0

* * *

assay.system: Ribosomal protein S6 kinase alpha-1 (Homo sapiens) (UniProt Q15418)
Sequence (Q15418 whole entry): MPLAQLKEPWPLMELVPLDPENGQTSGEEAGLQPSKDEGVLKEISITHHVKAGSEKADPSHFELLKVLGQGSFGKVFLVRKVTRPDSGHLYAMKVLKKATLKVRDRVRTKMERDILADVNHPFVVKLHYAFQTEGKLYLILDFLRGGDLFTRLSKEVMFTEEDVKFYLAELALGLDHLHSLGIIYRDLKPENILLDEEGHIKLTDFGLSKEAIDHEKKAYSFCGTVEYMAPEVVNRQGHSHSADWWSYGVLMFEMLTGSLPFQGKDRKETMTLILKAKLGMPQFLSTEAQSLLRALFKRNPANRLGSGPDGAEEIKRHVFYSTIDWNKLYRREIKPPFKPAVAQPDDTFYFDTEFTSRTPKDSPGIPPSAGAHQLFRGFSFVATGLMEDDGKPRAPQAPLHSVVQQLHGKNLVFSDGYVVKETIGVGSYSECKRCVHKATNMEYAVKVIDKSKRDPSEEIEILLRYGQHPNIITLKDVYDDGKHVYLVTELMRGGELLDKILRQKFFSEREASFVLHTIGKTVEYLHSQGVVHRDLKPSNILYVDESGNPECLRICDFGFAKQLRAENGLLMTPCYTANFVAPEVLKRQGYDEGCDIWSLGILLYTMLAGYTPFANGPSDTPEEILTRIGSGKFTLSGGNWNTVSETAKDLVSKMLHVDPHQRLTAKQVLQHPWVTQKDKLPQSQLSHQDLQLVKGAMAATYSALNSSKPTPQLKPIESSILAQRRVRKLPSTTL
protocol: Inhibition of RSK1 at 30 uM by microfluidic mobility shift assay
# inhibition per record follows
Give a bare numeral; the unit % is implied.

INSERT INTO results (smiles_string, observed_measurement) VALUES
  ('CC(=O)Nc1nn(C)c2cc(-c3ccc(N4CCN(C)CC4)cc3)[nH]c(=O)c12', 16);

Ask | For COc1ccc(-c2c(C)[nH]c(=O)c3c(N)nn(C)c23)cc1 , write its inhibition.
Reply | 18

Ask | For Cc1cc2[nH]nc(N)c2cn1 , write its inhibition.
Reply | 11

Ask | For Cc1cc2[nH]nc(N)c2c(N2CCOCC2)n1 , write its inhibition.
Reply | 30

Ask | For COc1cccc(-c2cc3c(c(N)nn3C)c(=O)[nH]2)c1 , write its inhibition.
Reply | 22

Ask | For Nc1c2c(=O)[nH]c(-c3ccccc3)cc2nn1-c1ccccc1 , write its inhibition.
Reply | 38

* * *

assay.system: Serine/threonine-protein kinase Chk2 (Homo sapiens)
Sequence (O96017 whole entry): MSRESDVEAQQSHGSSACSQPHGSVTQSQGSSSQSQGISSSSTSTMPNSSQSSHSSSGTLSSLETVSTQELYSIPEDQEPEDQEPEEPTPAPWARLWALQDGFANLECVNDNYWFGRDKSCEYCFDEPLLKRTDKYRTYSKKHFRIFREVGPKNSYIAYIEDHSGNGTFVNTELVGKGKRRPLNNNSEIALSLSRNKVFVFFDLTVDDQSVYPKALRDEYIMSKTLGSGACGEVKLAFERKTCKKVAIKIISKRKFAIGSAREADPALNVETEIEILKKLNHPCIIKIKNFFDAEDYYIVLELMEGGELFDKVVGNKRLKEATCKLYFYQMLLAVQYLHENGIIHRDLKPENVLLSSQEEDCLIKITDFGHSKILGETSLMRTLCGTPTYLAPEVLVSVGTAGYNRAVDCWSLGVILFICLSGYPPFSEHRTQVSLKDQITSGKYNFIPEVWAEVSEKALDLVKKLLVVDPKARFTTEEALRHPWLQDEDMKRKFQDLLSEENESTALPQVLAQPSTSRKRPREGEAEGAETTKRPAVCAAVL
protocol: Inhibition of CHK2 at 30 uM by microfluidic mobility shift assay
# inhibition per record follows

Ask | Send back Serine/threonine-protein kinase Chk2 (Homo sapiens) inhibition of COc1ccc(S(=O)(=O)Nc2nn(C)c3cc(C)[nH]c(=O)c23)c(OC)c1 only.
Reply | 6%

* * *

assay.system: Protein kinase C zeta type (Homo sapiens) (UniProt Q05513)
Sequence (whole entry): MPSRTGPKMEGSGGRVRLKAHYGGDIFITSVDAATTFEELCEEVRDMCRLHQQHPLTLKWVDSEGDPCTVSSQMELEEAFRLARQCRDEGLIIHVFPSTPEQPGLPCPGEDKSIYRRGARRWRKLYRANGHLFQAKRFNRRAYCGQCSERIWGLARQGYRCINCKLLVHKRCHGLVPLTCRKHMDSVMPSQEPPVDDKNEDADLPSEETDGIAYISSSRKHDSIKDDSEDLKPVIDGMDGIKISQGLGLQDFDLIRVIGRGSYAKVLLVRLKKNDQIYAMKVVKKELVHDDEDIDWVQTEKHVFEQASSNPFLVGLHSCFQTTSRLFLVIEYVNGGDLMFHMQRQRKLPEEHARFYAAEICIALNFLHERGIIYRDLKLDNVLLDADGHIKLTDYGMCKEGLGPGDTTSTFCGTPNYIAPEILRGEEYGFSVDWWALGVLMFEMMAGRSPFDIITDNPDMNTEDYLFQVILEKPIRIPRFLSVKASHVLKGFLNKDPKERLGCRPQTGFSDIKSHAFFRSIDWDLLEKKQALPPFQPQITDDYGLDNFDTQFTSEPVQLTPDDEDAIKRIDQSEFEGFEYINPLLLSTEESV
protocol: Inhibition of PKCz at 30 uM by microfluidic mobility shift assay
# inhibition per record follows
Give a bare numeral; the unit % is implied.

Ask | For COc1ccc(-c2c(C)[nH]c(=O)c3c(N)nn(C)c23)cc1 , write its inhibition.
Reply | 10

Ask | For Nc1n[nH]c2cc(-c3ccc(N4CCOCC4)cc3)[nH]c(=O)c12 , write its inhibition.
Reply | -2

Ask | For Cc1cc2c(c(NC(=O)Nc3ccccc3)nn2C)c(=O)[nH]1 , write its inhibition.
Reply | 19

Ask | For CN1CCN(c2ccc(-c3cc4c(c(N)nn4C)c(=O)[nH]3)cc2)CC1 , write its inhibition.
Reply | 7

Ask | For COC(=O)CCc1c(C)[nH]c(=O)c2c(N)nn(C)c12 , write its inhibition.
Reply | 14

Ask | For Cc1cc2[nH]nc(N)c2c(=O)[nH]1 , write its inhibition.
Reply | 10

Ask | For Nc1c2c(=O)[nH]c(-c3ccccn3)cc2nn1-c1ccccc1 , write its inhibition.
Reply | 3

Ask | For Cc1cc2c(c(N)nn2C)c(N2CC[C@H](O)C2)n1 , write its inhibition.
Reply | 19
